Assay: Metabolic stability assessed as human UGT-mediated metabolism by measuring half life
Assay type: ADME
assay-readout: half-life (min)
Only the number, expressed in min, is required.

Problem: Output half-life of CCC(c1nc2ncc(Cl)cc2[nH]1)[C@H]1CC[C@@H](c2ccnc3ccc(C(F)(F)F)cc32)CC1 (stereo partly specified)
Solution: 95

====

Experiment: Metabolic stability in rat liver microsomes assessed as parent compound remaining at 0.5 uM after 10 mins
Format: ADME, Microsome
Conditions: read-out: Stabilty
# if measured remaining at 10 min, 0.5 µM < 30%: 1.0  # else: 0.0

Problem: Find out if reported remaining at 10 min, 0.5 µM for CCC(c1nc2ncc(Cl)cc2[nH]1)[C@H]1CC[C@@H](c2ccnc3ccc(F)cc32)CC1 (stereo not given in full) is less than 30%
Solution: 0.0

Problem: Find out if reported remaining at 10 min, 0.5 µM for COCC(Nc1nnc(-c2ccc(OC)cc2)o1)[C@H]1CC[C@@H](c2ccnc3ccc(F)cc32)CC1 (stereo not given in full) is less than 30%
Solution: 1.0

Problem: Find out if reported remaining at 10 min, 0.5 µM for CCC(Nc1nnc(-c2ccc(OC)cc2)o1)[C@H]1CC[C@@H](c2ccnc3ccc(F)cc32)CC1 (stereo not given in full) is less than 30%
Solution: 0.0

Problem: Find out if reported remaining at 10 min, 0.5 µM for CCOCC(Nc1nnc(-c2ccc(OC)cc2)o1)[C@H]1CC[C@@H](c2ccnc3ccc(C(F)(F)F)cc32)CC1 (stereo not given in full) is less than 30%
Solution: 0.0

Problem: Find out if reported remaining at 10 min, 0.5 µM for CCC(Nc1nnc(-c2ccc(OC)cc2)o1)[C@H]1CC[C@H](Oc2ccnc3ccccc23)CC1 (stereo not given in full) is less than 30%
Solution: 0.0

Problem: Find out if reported remaining at 10 min, 0.5 µM for CCC(c1nc2ccc(Cl)cc2[nH]1)[C@H]1CC[C@H](Oc2ccnc3ccccc23)CC1 (stereo not given in full) is less than 30%
Solution: 0.0

Problem: Find out if reported remaining at 10 min, 0.5 µM for C[C@@H](c1nc2ccc(F)cc2[nH]1)[C@H]1CC[C@@H](c2ccnc3ccc(F)cc32)CC1 is less than 30%
Solution: 1.0

Problem: Find out if reported remaining at 10 min, 0.5 µM for COc1ccc(Nc2nnc([C@H](C)[C@H]3CC[C@@H](c4ccnc5ccc(F)cc54)CC3)o2)cc1 is less than 30%
Solution: 1.0

Problem: Find out if reported remaining at 10 min, 0.5 µM for C[C@@H](c1nc2ccc(Cl)cc2[nH]1)[C@H]1CC[C@@H](c2ccnc3ccc(F)cc32)CC1 is less than 30%
Solution: 1.0

Problem: Find out if reported remaining at 10 min, 0.5 µM for C[C@@H](c1ncc(-c2ccc(Cl)cc2)[nH]1)[C@H]1CC[C@@H](c2ccnc3ccc(F)cc32)CC1 is less than 30%
Solution: 1.0

Problem: Find out if reported remaining at 10 min, 0.5 µM for C[C@@H](c1nnc(-c2ccc(Cl)cc2)o1)[C@H]1CC[C@@H](c2ccnc3ccc(F)cc32)CC1 is less than 30%
Solution: 1.0

Problem: Find out if reported remaining at 10 min, 0.5 µM for C[C@@H](c1nc2ncc(Cl)cc2[nH]1)[C@H]1CC[C@@H](c2ccnc3ccc(F)cc32)CC1 is less than 30%
Solution: 1.0

Problem: Find out if reported remaining at 10 min, 0.5 µM for C[C@@H](c1nnc(-c2ccc(Cl)cc2)[nH]1)[C@H]1CC[C@@H](c2ccnc3ccc(F)cc32)CC1 is less than 30%
Solution: 0.0

Problem: Find out if reported remaining at 10 min, 0.5 µM for CCC(c1nc2ccc(Cl)cc2[nH]1)[C@H]1CC[C@@H](c2ccnc3ccc(F)cc32)CC1 (stereo not given in full) is less than 30%
Solution: 1.0

Problem: Find out if reported remaining at 10 min, 0.5 µM for CCC(c1nc2ncc(Cl)cc2[nH]1)[C@H]1CC[C@@H](c2ccnc3ccc(C(F)(F)F)cc32)CC1 (stereo not given in full) is less than 30%
Solution: 0.0

Problem: Find out if reported remaining at 10 min, 0.5 µM for C[C@@H](C(=O)Nc1ccc(Cl)cc1)[C@H]1CC[C@@H](c2ccnc3ccc(F)cc32)CC1 is less than 30%
Solution: 0.0

Problem: Find out if reported remaining at 10 min, 0.5 µM for CCC(Nc1nnc(-c2ccc(OC)cc2)o1)[C@H]1CC[C@@H](c2ccnc3ccc(C(F)(F)F)cc32)CC1 (stereo not given in full) is less than 30%
Solution: 0.0

Problem: Find out if reported remaining at 10 min, 0.5 µM for COc1ccc(-c2nnc(N[C@H](C)[C@H]3CC[C@@H](c4ccnc5ccc(F)cc54)CC3)o2)cc1 is less than 30%
Solution: 0.0

Problem: Find out if reported remaining at 10 min, 0.5 µM for CCC(Nc1nnc(-c2ccc(OC)cc2)o1)[C@H]1CC[C@@H](c2ccnc3c(F)cc(F)cc32)CC1 (stereo not given in full) is less than 30%
Solution: 0.0

Problem: Find out if reported remaining at 10 min, 0.5 µM for C[C@@H](c1ncc(-c2ccc(Cl)cc2)o1)[C@H]1CC[C@@H](c2ccnc3ccc(F)cc32)CC1 is less than 30%
Solution: 0.0

Values compiled from ChEMBL document CHEMBL4715934.
